Molecular target: DDR1 (Homo sapiens (Human), UniProt Q08345)
Sequence (Q08345 19-913): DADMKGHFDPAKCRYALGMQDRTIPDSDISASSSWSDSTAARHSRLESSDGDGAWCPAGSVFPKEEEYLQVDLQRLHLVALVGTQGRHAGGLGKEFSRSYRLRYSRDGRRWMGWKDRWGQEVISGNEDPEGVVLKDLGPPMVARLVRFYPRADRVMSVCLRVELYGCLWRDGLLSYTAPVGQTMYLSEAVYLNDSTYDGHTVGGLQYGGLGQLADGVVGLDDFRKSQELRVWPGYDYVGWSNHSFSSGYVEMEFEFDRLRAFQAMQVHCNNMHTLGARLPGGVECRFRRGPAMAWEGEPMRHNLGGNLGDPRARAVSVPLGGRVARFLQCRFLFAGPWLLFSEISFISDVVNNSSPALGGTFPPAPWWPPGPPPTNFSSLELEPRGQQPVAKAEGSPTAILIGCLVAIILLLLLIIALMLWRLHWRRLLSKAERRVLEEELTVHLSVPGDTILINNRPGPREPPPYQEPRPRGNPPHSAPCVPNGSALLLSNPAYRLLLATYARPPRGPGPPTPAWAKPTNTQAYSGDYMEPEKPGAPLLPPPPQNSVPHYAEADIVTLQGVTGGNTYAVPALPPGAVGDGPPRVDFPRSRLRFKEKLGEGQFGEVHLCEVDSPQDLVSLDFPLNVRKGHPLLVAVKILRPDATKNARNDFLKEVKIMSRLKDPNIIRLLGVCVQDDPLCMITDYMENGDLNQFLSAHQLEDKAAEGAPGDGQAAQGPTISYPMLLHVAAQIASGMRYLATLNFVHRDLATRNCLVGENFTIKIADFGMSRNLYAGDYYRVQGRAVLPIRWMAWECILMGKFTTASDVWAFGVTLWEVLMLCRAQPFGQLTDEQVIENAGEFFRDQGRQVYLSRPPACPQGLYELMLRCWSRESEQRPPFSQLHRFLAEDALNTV
Assay: Measurement of DDR1 enzyme inhibitory activity (phosphorylation of biotinylated peptide, time-resolved fluorescence)
Assay type: biochemical
Conditions: human DDR1 enzyme, biotinylated peptide phosphorylation; read-out: DDR1 enzyme inhibition assay IC50
quantityMeasured: IC50 (nM)

Solved cases below.
In [3]: df
Out[3]:
                             chemicalsmiles                            targetorsystem  numericresult
0  CCS(=O)(=O)c1ccc(Cl)cc1Nn1cnc2ncc(Br)cc2c1=O  DDR1 (Homo sapiens (Human), UniProt Q08345)            270
1  CCS(=O)(=O)c1ccc(Cl)cc1Cn1cnc2cc(C)c(I)cc2c1=O  DDR1 (Homo sapiens (Human), UniProt Q08345)            200

A: CCSc1ccc(Cl)cc1Nn1cnc2cnc(OC)cc2c1=O
B: CCSc1ccc(Cl)cc1Nn1cnc2c(Br)cc(OC(F)(F)F)cc2c1=O
// compare measured IC50, left A , right B , return larger Pick one; state its label. B

Each recorded value in this set is attributed to patent US10005739B2.
